tested on: K4 kissing-loop RNA reporter; assay: apparent KD of K4 kissing-loop reporter; higher = weaker reporter binding; conditions: Eterna round: R107; input ligand: none
Measured quantity: apparent KD of K4 kissing-loop reporter
Returns: string containing the number followed by the unit.

Solved cases (2 shown):
{"Input sequence": "UUUCGCUUCGUCUGAUAUAAUUGGCCAGAAGGAGCGGUAGAAUUACCAGGUAGGUCGCUGGCCCAGUGAUGUUGGGACUAGCGUG [Isrianve]", "Reported measurement": "104 nM"}
{"Input sequence": "AAUCACCGAGCGGCCGCCACUGCACAAAGCGAGUUUAUAGACACGGUACUGGAGUGAUGUUCGAGCAGGACCGGGCUAACUAAGC [theeternabot_sameState_KL_Trp_B_12]", "Reported measurement": "1190 nM"}

Consider the sequence AGUGAUGUAUGGCGGUGUGUCACUUAAAAUCAGGAUAUAUAAACAAAUAGAAGGGAUGGCGGAGUGAUGUUCCGCCGGCCGCCAU [FMN A Exl V2] and give its measured apparent KD of K4 kissing-loop reporter. 157 nM

// same read-out, input: CGCCGGAAGGCGAGCGCUCCCACUCCGGAAGGAGCGCCCGGAAGGGCAGGUAGGUCGCCGGAGUGAUGUUCCGGUGGAGGGCUCG [#2 Exclusion - Arginine A Attempt #11 (Inspired by Omei)] 164 nM

Please give the result for UGUCAUUGGUCGGCCGCCACUAGGACCGGGUAUAGCCUAGUGAUGUUAGUAAGUACGGCCGCCACUAGGACCGGGACCGAUGACU [KL-SSTryp-B21 #DoubleAptamer] too. 591 nM

----------
tested on: K4 kissing-loop RNA reporter; experiment: apparent KD of K4 kissing-loop reporter; higher = weaker reporter binding; details: Eterna round: R107; input ligand: FMN 200 uM
Class (required): determined from apparent KD of K4 kissing-loop reporter; valid ranges are group A: < 200 nM; group B: ≥ 200 nM and < 300 nM; group C: ≥ 300 nM

Check out these entries, answers already filled in.
{"Input sequence": "UCCUAGGCUCGAAAGAGCCUAGGUUAGACUCAGGAUAUCUGGAAACAGAGAAGGGAGCUACUAGUGAUGUUAGGAAUUCCCAUUU", "Label": "group A"}
{"Input sequence": "GCGCGUCAUGUCAGCGGAGACACUGUCGAUACCAGCGCCGCAAGGCGCCCUUGGCAGCGACGCGCUGGAGUGAUGUUCCAGCGUG [#2 Exclusion - Theophylline A Attempt #15 (HarryS)]", "Label": "group A"}
{"Input sequence": "UGAUACCAGACGGCCGCCACUCCCGCAGGUCAAAGACCUGCGAAGAAGGUUUUUUAGUGAUGUUGGAGGACCGGGUCUGGUAUCU [FiskerMod 20 - Jieux - Exclusion - Tryptophan B]", "Label": "group C"}
{"Input sequence": "AAUAAUCUAGGUGAUACCAGCUCAACAUGAGUGAUGUUCAUGAACUAAUGUAGAGUUGAGAGCCCUUGGCAGCACCUAGAUAAUA [KL-SSTheoB6]", "Label": "group C"}
{"Input sequence": "ACGUAGUUCUAGGAUACCAGCCAAGGUGCCAGGACAAAAGUCCUGGCAGCCAGUGAUGUUGGCCCUUGGCAGCCUAGAACUACGA [Omei KL Theo B Exc B v7]", "Label": "group A"}
{"Input sequence": "UGACUGGAUGGAAGGAGCGCUAAACUCCUAGUGAUGUUAGGGAUACGAGGCAAAGCCUCGAAGCAGGUAGGUCGCCAUCUAGUCU [FiskerMod 21 - Jieux - Same State - Arginine B]", "Label": "group A"}
{"Input sequence": "AAAUCGUUCAGAAGGAGCGUGAAUUAUUCUUAAUUAUAUUAUACGAGUGAUGUUCGUGUUUCACAGGUAGGUCGCUGAUCGAUAA [JR_SSArginiB_Sub005]", "Label": "group A"}
{"Input sequence": "AGGAUGUAGUGAUGUUAUAUAAGAAGUAAACGAGGACCGGUACGGCCGCCACUCGAAGCGGCUACUAGCGUGUUGCGAGGUGCGC [ExTryptoA.Cd]", "Label": "group C"}
{"Input sequence": "AAUUCAAACUGAAGGAGCGAGCAUUUUGGAGUGAUGUUCCAAGCGAGUGAUGUUCGCAUAGCUCAGGUAGGUCGCAGUUUGGAUA [Same State Arginie B GF 14]", "Label": "group A"}
{"Input sequence": "ACGGUUUCCACGGCCGCCACUUGCGCAUUAGAUCUUACCCUAGGAGUGAUGUUCCAUACAAGUACAAGGACCGGGUGGGACAUAA [theeternabot_sameState_KL_Trp_B_28]", "Label": "group B"}

# input for lookup
Which class holds AAUUUAUUAUCUGAUACCAGACUUUAUCUUGUUUAUAAGUCAAGUGAUGUUUGACUAUUAGUCCCUUGGCAGCAGUAUUUUUUAA [JR_Nu_SSTheophyB_Sub025] ? group B

----------
tested on: K4 kissing-loop RNA reporter; assay: apparent KD of K4 kissing-loop reporter; higher = weaker reporter binding; conditions: Eterna round: R107; input ligand: FMN 200 uM;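 note: bound reporter read as fluorescence of individual clusters on recovered sequencing chips by microscopy, with normalized cluster intensities fitted with a binding model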
Measured quantity: apparent KD of K4 kissing-loop reporter (µM)
Please state the figure in µM; there is no need to write the unit.

Fill in the blank: the reported apparent KD of K4 kissing-loop reporter of AUGUGGAGCGACGUUUCGGGAUAUCGGGAAGGAGCGCUGAUAACGGCAGGUAGGUCGCCUGGUCCAGUGAUGUUGGGCAUGCAUU [Exclusion Arg A GF 24] is ____. 0.15

Further, for UCAUGAAAGACGGCCGCCACUGAUGCUGGAGUGAUGUUUCGGACAUAGUAGAGUGAUGUUCUGCGCAGGACCGGGUCGUCAUGAA [KL-SSTryp-B10 #double Kiss] ? 0.132

----------
system: MS2 coat protein; assay: apparent KD of MS2 coat protein; designed switch direction (-1 OFF switch, 1 ON switch): -1; higher = weaker reporter binding; conditions: input ligand: FMN 200 uM
Class boundaries, taken from values of apparent KD of MS2 coat protein, are as follows: lower (below 30 nM), middle (30 nM to below 80 nM), upper (80 nM or more)

Here are 6 sequences together with their reported answers.
{"Input sequence": "UUAGAAUUGUUAGGAUAUUAAUUAUUGUUUAGUAUGAUCUACAUGAGGAUCACCCAUGUUAAAUAUAAGAAGGAACGUUAGAUU [JR_ExcNG2_Sub095] (Eterna round: R96, puzzle: Exclusion NG 2)", "Label": "middle"}
{"Input sequence": "UUUAGUGGUAAGGAUAUCCUUGAGAAAGAAAGAGGAGAAGGUACCACAUGAGGAUCACCCAUGUGGCUCUUUUA [jl-ex6-4.58 Nando mod] (Eterna round: R97, puzzle: Exclusion 6)", "Label": "middle"}
{"Input sequence": "UUGUUUUCCGCAGGAUAUGCUCCUCCAUUACUAGCAGAAGGGCGUUGAACAUGAGGAUCACCCAUGUAUGUAAUUGCUUAUUGC [JR_ExcNG1_Sub073] (Eterna round: R96, puzzle: Exclusion NG 1)", "Label": "lower"}
{"Input sequence": "GAAUAGAGAGGAUAUGCGAAGUAGGUAGUAAGAUAUAUCUGACAUGAGGAUCACCCAUGUAGAAGGCUCAGAUC [EX2 #4] (Eterna round: R97, puzzle: Exclusion 2)", "Label": "middle"}
{"Input sequence": "GCACGGAGUGUAGGAUAUCUGUGCGAUUAGCUCAGAGAAGGACACAUGAGGAUCACCCAUGUGUUCCUCGGAAACGAACCGUGC [Eli exng1 - 051] (Eterna round: R96, puzzle: Exclusion NG 1)", "Label": "middle"}
{"Input sequence": "GCCUAUGUGGAGGAUAUCGACUUCGAAAGAAGUCGAGAAGGCCACACAUGAGGAUCACCCAUGUGGUGCCAGGC [Omei Ex6 H13] (Eterna round: R97, puzzle: Exclusion 6)", "Label": "upper"}

State the class of the sequence shown: AUUAUGUUAGGAUAUGCUUAUGGUGGAUAAUCGGAUAUGAUGCAGAAGGGACAUGAGGAUCACCCAUGUACUGA [EX4 #24] (Eterna round: R97, puzzle: Exclusion 4) lower

Same question, UUUUUAAAUGAAGGAUAUACUUAACAUGAGGAUCACCCAUGUGGUGUUGUGAGUGAGUGAGUUUAGUAGAAGGUCAAUUCUUUU [JMF's solution 86] (Eterna round: R96, puzzle: Exclusion NG 2) this time upper

----------
tested on: MS2 coat protein; experiment: apparent KD of MS2 coat protein; designed switch direction (-1 OFF switch, 1 ON switch): 1; higher = weaker reporter binding; details: Eterna round: R95; input ligand: FMN 200 uM
Measured apparent KD of MS2 coat protein, listed per entry for reference.
Give a bare numeral; the unit nM is implied.

Solved entries (count: 2):
{"Input sequence": "GAGUUACUAUCUCAGGAUAUCAUGUCAAAGACAUGAGGAUCACCCAUGUACCAGGAAACUGGUUAUGAGAAGGGAGAUAGUAACG [Mat - Same State 2 - Mod - D52] (puzzle: Same State 2)", "Target desc": "MS2 coat protein", "Measured quantity": "apparent KD of MS2 coat protein", "Reported measurement": 112}
{"Input sequence": "AUGGUGCAGGUACAGGAUAUGUUGCUCGUAACAUGAGGAUCACCCAUGUACCUAUGAGAUUAAAUGCAGAAGGGUGCACACCACU [Mat - Same State 2 - Mod of UCT - D89] (puzzle: Same State 2)", "Target desc": "MS2 coat protein", "Measured quantity": "apparent KD of MS2 coat protein", "Reported measurement": 77.1}

Could you share which apparent KD of MS2 coat protein value was measured for AUUAAACAUGAGGAUCACCCAUGUCAACAAAGUCGAGGAUAUGGGCAUAUUAUAUAAUAACCAGAAGGCGAAUAAU [salish99_ss1_r3_084] (puzzle: Same State 1) ? 11.1

Could you do the same for CGGGUACAUGAGGAUCACCCAUGUGGGAGGGAUGCAGGAUAUGUGGGAAAAGGGUAUGAAACAGAAGGGCAAGGAG [JR_SS!_Sub013] (puzzle: Same State 1) , please? 29.6
